molecular target: human JAK1 (a.a. 837-1142) (Homo sapiens); construct: human JAK1 (a.a. 837-1142); His tag (N); made in house; host or cells: insect cells (baculovirus); test: In vitro JAK kinase assay (HTRF, phosphorylation of a biotinylated peptide), JAK1; type: biochemical; conditions: read-out: JAK1 IC50
Sequence (P23458 849-1154): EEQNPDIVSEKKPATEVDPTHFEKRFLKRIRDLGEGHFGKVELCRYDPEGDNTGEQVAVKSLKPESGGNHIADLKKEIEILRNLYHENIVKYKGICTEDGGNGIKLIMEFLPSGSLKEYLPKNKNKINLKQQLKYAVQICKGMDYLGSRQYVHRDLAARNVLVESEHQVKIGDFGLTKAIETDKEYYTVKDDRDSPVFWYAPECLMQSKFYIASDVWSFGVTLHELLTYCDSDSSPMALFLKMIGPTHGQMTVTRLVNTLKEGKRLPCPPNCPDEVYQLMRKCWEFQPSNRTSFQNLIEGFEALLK
Where a name gives a salt, the structure may show the parent alone.
reported_metric: IC50 (nM)

Sample answers from the record:
[
  {
    "compound": "O=C(c1cccs1)N1Cc2cccc(c2)Nc2ncc(Cl)c(n2)Nc2cccc1c2 [Example C25]",
    "unit_abbreviation": "nM",
    "reported_measurement": 91
  },
  {
    "compound": "O=C(Cc1cccs1)Nc1ccc2cc1CCc1cccc(c1)Nc1ncc(Cl)c(n1)N2 [Example C42, trifluoroacetate]",
    "unit_abbreviation": "nM",
    "reported_measurement": 37
  },
  {
    "compound": "O=C(Cc1ccsc1)Nc1ccc2cc1CCc1cccc(c1)Nc1ncc(Cl)c(n1)N2 [Example C32, trifluoroacetate]",
    "unit_abbreviation": "nM",
    "reported_measurement": 34
  },
  {
    "compound": "Clc1cnc2nc1Nc1cccc(c1)/C=C\\c1cncc(c1)N2 [Example C20, bis(trifluoroacetate)]",
    "unit_abbreviation": "nM",
    "reported_measurement": 2.9
  },
  {
    "compound": "Cc1cc(C(=O)N2CCC(CC(=O)Nc3ccc4cc3CCc3cccc(c3)Nc3ncc(C)c(n3)N4)CC2)no1 [Example C54, trifluoroacetate]",
    "unit_abbreviation": "nM",
    "reported_measurement": 65
  },
  {
    "compound": "Fc1cnc2nc1Nc1cccc(c1)CCc1cc(ccn1)N2 [Example C13]",
    "unit_abbreviation": "nM",
    "reported_measurement": 70
  },
  {
    "compound": "Cc1[nH]c2ccccc2c1CC(=O)Nc1ccc2cc1CCc1cccc(c1)Nc1ncc(Cl)c(n1)N2 [Example C34, trifluoroacetate]",
    "unit_abbreviation": "nM",
    "reported_measurement": 265
  },
  {
    "compound": "Clc1cnc2nc1Nc1ccc(OCC3CCNC3)c(c1)CCc1cncc(c1)N2 (stereo not drawn) [Example C55, trihydrochloride]",
    "unit_abbreviation": "nM",
    "reported_measurement": 96
  }
]

[P] O=S1(=O)Nc2cccc(c2)Nc2ncc(Cl)c(n2)Nc2cccc1c2 [Example C7, trifluoroacetate]
[Q] O=C(c1cccnc1)N1Cc2cccc(c2)Nc2ncc(Cl)c(n2)Nc2cccc1c2 [Example C27]
[R] CC(=O)N1CCC(COc2ccc3cc2CCc2cncc(c2)Nc2ncc(Cl)c(n2)N3)C1 (stereo not drawn) [Example C56, bis(trifluoroacetate)]
[S] O=C(c1ccccc1)N1Cc2cccc(c2)Nc2ncc(Cl)c(n2)Nc2cccc1c2 [Example C22]
Task for the reader: rank each entry by its IC50, from the minimum upward. API: response body holds the labels in the requested order. S, Q, P, R
(S: 24 nM, Q: 43 nM, P: 63 nM, R: 216 nM)

[1] O=C(Cc1cccnc1)Nc1ccc2cc1CCc1cccc(c1)Nc1ncc(Cl)c(n1)N2 [Example C39, bis(trifluoroacetate)]
[2] O=S1(=O)Cc2cccc(c2)Nc2ncc(Cl)c(n2)Nc2cccc(c2)N1 [Example C9, trifluoroacetate]
Which record shows the lower IC50: the first, 1 , or the second, 2 ? # respond with the chosen item's label 1

[I] Cn1cc(CC(=O)Nc2ccc3cc2CCc2cccc(c2)Nc2ncc(Cl)c(n2)N3)c2ccccc21 [Example C37, trifluoroacetate]
[II] O=C(Cc1c[nH]c2ccccc12)Nc1ccc2cc1CCc1cccc(c1)Nc1ncc(Cl)c(n1)N2 [Example C29, bis(trifluoroacetate)]
[III] Cc1nc(CC(=O)Nc2ccc3cc2CCc2cccc(c2)Nc2ncc(Cl)c(n2)N3)c(C)s1 [Example C46, trifluoroacetate]
[IV] O=C(Cc1csc2ccccc12)Nc1ccc2cc1CCc1cccc(c1)Nc1ncc(Cl)c(n1)N2 [Example C35, trifluoroacetate]
Please list these in order of increasing IC50. Thank you! Write out the labels following the order that was asked for. II, III, IV, I
